- Experimental protocol: In-vivo acute toxicity study
- Condition details: rat, 2 g/kg, female rats, po, observed 14 d, read-out: median lethal dose (LD50)
Measured parameter: LD50 at 14 d

Bench note: what LD50 at 14 d did "COc1ccc(-c2nc(SC)nc(NN=Cc3cc(OC)c(OC)c(OC)c3)c2C#N)cc1" show?
> 2000 mg/kg

---

Measured parameter: melting point

Compound: COc1ccc(-c2nc(SC)nc(NN=Cc3ccc(Cl)cc3)c2C#N)cc1 [7c]
melting point: 266 to 268 °C

Bench note: what melting point did COc1ccc(-c2nc(SC)nc(Nc3ccc(C)cc3)c2C#N)cc1 [5a] show?
270 to 272 °C

Bench note: what melting point did COc1ccc(C=NNc2nc(SC)nc(-c3ccc(OC)cc3)c2C#N)cc1 [7b] show?
244 to 246 °C

Bench note: what melting point did COc1ccc(-c2nc(SC)nc(NN=Cc3ccc(C)cc3)c2C#N)cc1 [7a] show?
246 to 248 °C

Bench note: what melting point did COc1ccc(-c2nc(SC)nc(N3CCN(c4ccccc4F)CC3)c2C#N)cc1 [4d] show?
142 to 144 °C

Bench note: what melting point did COc1ccc(Nc2nc(SC)nc(-c3ccc(OC)cc3)c2C#N)cc1 [5b] show?
238 to 240 °C

Bench note: what melting point did COc1ccc(-c2nc(SC)nc(N3CCN(c4ccccc4OC)CC3)c2C#N)cc1 [4e] show?
170 to 172 °C

---

# PI3Kγ (Homo sapiens, UniProt P48736): pIC50 values follow
# Sequence (P48736 whole entry): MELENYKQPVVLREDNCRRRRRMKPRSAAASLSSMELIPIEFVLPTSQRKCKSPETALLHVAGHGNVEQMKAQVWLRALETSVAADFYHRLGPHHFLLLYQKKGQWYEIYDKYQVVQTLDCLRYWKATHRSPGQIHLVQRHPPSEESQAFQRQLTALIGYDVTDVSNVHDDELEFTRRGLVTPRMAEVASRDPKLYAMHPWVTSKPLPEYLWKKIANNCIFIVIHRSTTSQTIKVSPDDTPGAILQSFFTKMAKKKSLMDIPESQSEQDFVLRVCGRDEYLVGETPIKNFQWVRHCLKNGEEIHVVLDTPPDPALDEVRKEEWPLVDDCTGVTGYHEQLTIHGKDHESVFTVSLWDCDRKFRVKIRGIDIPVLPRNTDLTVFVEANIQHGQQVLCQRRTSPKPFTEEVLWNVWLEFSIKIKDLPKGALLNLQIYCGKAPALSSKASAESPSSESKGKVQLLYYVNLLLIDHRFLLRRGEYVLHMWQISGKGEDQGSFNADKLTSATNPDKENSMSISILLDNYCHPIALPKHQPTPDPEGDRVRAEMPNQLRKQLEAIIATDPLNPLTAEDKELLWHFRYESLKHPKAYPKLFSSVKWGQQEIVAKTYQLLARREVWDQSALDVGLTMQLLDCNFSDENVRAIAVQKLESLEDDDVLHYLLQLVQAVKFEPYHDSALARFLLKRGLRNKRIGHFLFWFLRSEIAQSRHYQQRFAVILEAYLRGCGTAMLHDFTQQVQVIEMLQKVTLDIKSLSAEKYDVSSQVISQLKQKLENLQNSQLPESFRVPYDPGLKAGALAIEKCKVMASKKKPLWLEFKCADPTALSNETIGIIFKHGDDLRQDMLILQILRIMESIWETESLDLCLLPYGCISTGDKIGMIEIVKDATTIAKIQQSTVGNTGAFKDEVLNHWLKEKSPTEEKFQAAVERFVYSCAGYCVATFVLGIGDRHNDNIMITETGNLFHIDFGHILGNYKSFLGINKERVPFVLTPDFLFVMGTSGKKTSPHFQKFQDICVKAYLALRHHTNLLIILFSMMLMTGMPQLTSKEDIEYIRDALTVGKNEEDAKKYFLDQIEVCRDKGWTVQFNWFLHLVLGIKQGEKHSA
Scale: negative log10 of molar concentration, which is what pIC50 denotes.

Structure notation: COc1ccc(-c2nc(SC)nc(N3CCN(c4ccccc4F)CC3)c2C#N)cc1
pIC50: 4.45

Please examine the following record next.
Notebook entry, PI3Kγ (Homo sapiens, UniProt P48736) assay: pIC50 of "COc1ccc(-c2nc(SC)nc(NN=Cc3cc(OC)c(OC)c(OC)c3)c2C#N)cc1" = ?
5.16

---

- Tgt: AKT-1 (Homo sapiens)
- Sequence (P31749 whole entry): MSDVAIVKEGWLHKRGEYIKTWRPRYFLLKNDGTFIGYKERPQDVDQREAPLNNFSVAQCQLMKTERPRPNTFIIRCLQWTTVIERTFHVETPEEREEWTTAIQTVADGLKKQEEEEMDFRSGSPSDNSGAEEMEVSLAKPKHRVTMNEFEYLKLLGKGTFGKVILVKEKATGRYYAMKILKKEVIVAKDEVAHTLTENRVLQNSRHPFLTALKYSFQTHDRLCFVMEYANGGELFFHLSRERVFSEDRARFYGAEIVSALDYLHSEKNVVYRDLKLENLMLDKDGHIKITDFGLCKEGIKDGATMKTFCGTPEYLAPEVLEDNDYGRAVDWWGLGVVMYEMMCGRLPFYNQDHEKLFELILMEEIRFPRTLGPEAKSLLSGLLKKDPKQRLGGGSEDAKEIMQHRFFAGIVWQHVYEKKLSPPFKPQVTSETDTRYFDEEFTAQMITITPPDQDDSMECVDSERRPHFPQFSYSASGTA
- Experimental protocol: AKT enzyme inhibition assay (ELISA, cell lysates)
- Condition details: mean ± SD of three experiments
Measured parameter: pIC50
Scale: negative log10 of molar concentration, which is what pIC50 denotes.

Bench note: what pIC50 did "CN(C)CCn1cc(-c2ccc(F)c(C(F)(F)F)c2)nc1C1CCN(c2ncnc3c2CC(=O)N3)CC1" show?
5.34

---

# PI3Kδ (Homo sapiens, UniProt O00329): IC50 values follow
# Sequence (O00329 whole entry): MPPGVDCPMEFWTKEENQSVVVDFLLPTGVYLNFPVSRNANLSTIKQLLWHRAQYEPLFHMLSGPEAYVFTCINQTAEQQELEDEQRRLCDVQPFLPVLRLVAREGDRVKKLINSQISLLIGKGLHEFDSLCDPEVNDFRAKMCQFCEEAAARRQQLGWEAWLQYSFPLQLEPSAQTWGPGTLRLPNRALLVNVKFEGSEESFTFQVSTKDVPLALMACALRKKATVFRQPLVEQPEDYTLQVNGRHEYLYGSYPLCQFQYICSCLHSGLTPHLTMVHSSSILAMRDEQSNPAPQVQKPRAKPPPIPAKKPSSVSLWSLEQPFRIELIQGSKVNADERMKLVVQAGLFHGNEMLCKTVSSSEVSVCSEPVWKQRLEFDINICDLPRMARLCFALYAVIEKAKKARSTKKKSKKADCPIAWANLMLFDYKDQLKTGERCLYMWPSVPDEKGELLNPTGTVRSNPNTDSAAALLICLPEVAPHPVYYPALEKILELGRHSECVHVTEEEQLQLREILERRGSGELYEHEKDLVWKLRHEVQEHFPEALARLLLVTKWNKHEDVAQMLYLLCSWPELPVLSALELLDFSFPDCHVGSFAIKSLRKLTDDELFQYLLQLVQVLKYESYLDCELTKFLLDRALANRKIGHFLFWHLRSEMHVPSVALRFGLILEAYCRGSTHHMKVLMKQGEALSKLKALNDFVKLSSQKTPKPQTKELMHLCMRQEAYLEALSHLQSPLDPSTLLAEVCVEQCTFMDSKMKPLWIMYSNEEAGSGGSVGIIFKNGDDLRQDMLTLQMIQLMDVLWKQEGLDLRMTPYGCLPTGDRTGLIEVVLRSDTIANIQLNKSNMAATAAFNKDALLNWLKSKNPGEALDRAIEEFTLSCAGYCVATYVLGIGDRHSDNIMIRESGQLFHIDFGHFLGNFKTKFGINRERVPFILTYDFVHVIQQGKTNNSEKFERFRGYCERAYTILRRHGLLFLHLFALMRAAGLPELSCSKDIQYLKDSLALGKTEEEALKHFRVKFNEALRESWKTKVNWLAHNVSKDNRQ
# Sequence (P27986 whole entry partner): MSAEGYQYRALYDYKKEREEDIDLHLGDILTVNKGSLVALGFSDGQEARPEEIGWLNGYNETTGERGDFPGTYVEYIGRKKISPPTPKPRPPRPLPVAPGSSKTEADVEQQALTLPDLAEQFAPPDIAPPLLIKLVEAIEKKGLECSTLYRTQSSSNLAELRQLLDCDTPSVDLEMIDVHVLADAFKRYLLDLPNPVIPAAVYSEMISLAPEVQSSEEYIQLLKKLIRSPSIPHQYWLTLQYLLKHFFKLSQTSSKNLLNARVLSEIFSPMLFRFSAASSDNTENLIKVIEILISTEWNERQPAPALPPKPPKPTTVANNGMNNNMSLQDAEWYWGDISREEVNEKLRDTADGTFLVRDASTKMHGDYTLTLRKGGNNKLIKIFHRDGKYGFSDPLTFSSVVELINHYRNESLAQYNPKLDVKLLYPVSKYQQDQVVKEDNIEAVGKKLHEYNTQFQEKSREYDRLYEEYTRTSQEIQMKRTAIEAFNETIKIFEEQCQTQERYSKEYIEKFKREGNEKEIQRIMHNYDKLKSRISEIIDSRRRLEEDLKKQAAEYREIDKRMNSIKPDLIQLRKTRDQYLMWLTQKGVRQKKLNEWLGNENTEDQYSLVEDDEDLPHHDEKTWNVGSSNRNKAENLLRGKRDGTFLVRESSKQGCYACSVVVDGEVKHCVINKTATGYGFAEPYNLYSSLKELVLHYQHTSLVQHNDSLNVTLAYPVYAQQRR
Only the number, expressed in µM, is required.

Worked set:
Molecule: COc1ccc(-c2nc(SC)nc(NN=Cc3cc(OC)c(OC)c(OC)c3)c2C#N)cc1
Tgt: PI3Kδ (Homo sapiens, UniProt O00329)
IC50, µM: 4.01
//
Molecule: O=c1cc(N2CCOCC2)oc2c(-c3ccccc3)cccc12 [LY294002, reference compound]
Tgt: PI3Kδ (Homo sapiens, UniProt O00329)
IC50, µM: 13.4

Please examine the following record next.
Notebook entry, PI3Kδ (Homo sapiens, UniProt O00329) assay: IC50 of "COc1ccc(-c2nc(SC)nc(N3CCN(c4ccccc4F)CC3)c2C#N)cc1" = ?
23.9

---

- Experimental protocol: Cytotoxicity on normal fibroblast cell line
- Type: cell-based
- Condition details: human, WI-38 normal fibroblast cells; non-tumorigenic cell line
Measured parameter: IC50 (µM)
Only the number, expressed in µM, is required.

Structure notation: COc1ccc(-c2nc(SC)nc(NN=Cc3cc(OC)c(OC)c(OC)c3)c2C#N)cc1
Measurement units: µM
Readout number: 34.8

Please examine the following record next.
Bench note: what IC50 did "COc1ccc(-c2nc(SC)nc(N3CCN(c4ccccc4F)CC3)c2C#N)cc1" show?
116
